This collection of values is drawn from paper PMC6387968.

Items are presented alongside their recorded half-life.
# Procedure details: in vivo
# Design: species or system male C57BL/6 mice
# Protocol conditions: male, C57BL/6, mouse, iv, 5 mg/kg
# Method: Healthy male C57BL/6 mice, 12 to 16 weeks old, weighing approximately 30 g, were maintained at the animal facility of the University of Cape Town. Mice were fed a standard laboratory diet and water ad libitum. Mice were housed in 27 × 21 × 18 cm cages, under controlled environmental conditions (26 ± 1°C with 12-h light/dark cycles). Mice were acclimatized to their experimental environment for 4 days before the experiment started. […]
Expressed in h, but write only the number.

Compound: CCCCCCCCCCOc1cc2c(=O)c(C(=O)NCCOCCO)cn(CC)c2cc1OCC [RMB041]
half-life (h): 62.3
//
Compound: CCCCCCCCCCOc1cc2c(=O)c(C(=O)NCCNCCO)cn(CC)c2cc1OCC [RMB043]
half-life (h): 8.6

Okay, now this compound:
Given the compound CCCCCCCCCCOc1cc2c(=O)c(C(=O)NCCOCCO)cn(CCO)c2cc1OCC [RMB073] , what is its reported half-life?
15.3

----------
# Procedure details: in vivo
# Parameters: species or system male C57BL/6 mice
# Protocol conditions: male, C57BL/6, mouse, po, 20 mg/kg
Items are presented alongside their recorded Cmax.
Expressed in µM, but write only the number.

Structure as smiles: CCCCCCCCCCOc1cc2c(=O)c(C(=O)NCCNCCO)cn(CC)c2cc1OCC
Measured value: 5.6

Given the compound CCCCCCCCCCOc1cc2c(=O)c(C(=O)NCCOCCO)cn(CC)c2cc1OCC , what is its reported Cmax?
5.4

Same thing, different compound: CCCCCCCCCCOc1cc2c(=O)c(C(=O)NCCOCCO)cn(CCO)c2cc1OCC
2

----------
Items are presented alongside their recorded half-life.
# Procedure details: in vivo
# Parameters: species or system male C57BL/6 mice
# Protocol conditions: male, C57BL/6, mouse, po, 20 mg/kg
Expressed in h, but write only the number.

// solved cases for half-life follow
Structure as smiles: CCCCCCCCCCOc1cc2c(=O)c(C(=O)NCCOCCO)cn(CCO)c2cc1OCC
Measured value: 11.6
--
Structure as smiles: CCCCCCCCCCOc1cc2c(=O)c(C(=O)NCCNCCO)cn(CC)c2cc1OCC
Measured value: 6.2

Given the compound CCCCCCCCCCOc1cc2c(=O)c(C(=O)NCCOCCO)cn(CC)c2cc1OCC , what is its reported half-life?
23.4

----------
# Procedure details: in vitro
# Assay type: in vitro ADME
# Protocol conditions: human, plasma, percentage plasma protein binding
Items are presented alongside their recorded fraction unbound at 4 h, 1 μg/mL.

// solved cases for fraction unbound at 4 h, 1 μg/mL follow
Structure as smiles: CCCCCCCCCCOc1cc2c(=O)c(C(=O)NCCOCCO)cn(CCO)c2cc1OCC
fraction unbound at 4 h, 1 μg/mL: 0.156

Structure as smiles: CCCCCCCCCCOc1cc2c(=O)c(C(=O)NCCOCCO)cn(CC)c2cc1OCC
fraction unbound at 4 h, 1 μg/mL: 0.104

Given the compound CCCCCCCCCCOc1cc2c(=O)c(C(=O)NCCNCCO)cn(CC)c2cc1OCC , what is its reported fraction unbound at 4 h, 1 μg/mL?
0.221
